FYI, the data here is from patent US7045283B2.

Assay: in vitro
Conditions: BEND-3 endothelial cells expressing VEGF receptor
readout: IC50 at 6 h (µg/mL)
Provide only the numeric value, understood in µg/mL.

q: Query (compound): CCC1=C[C@@H]2CN(C1)Cc1c([nH]c3ccccc13)[C@@](C(=O)OC)(c1cc3c(cc1OC)N(C)[C@H]1[C@@](O)(C(=O)OC)[C@H](OC(C)=O)[C@]4(CC)C=CCN5CC[C@]31[C@@H]54)C2 [free vinorelbine, vinorelbine] ; field requested: IC50 at 6 h
a: 0.67
